Field: log2 ratio of Biotin-Ahx-Ub-VS probe labelling. Provide a value for each of the compounds that follow.
- tested system: USP14 (UniProt P54578)
- Sequence (P54578 whole entry, the tested form may be a part): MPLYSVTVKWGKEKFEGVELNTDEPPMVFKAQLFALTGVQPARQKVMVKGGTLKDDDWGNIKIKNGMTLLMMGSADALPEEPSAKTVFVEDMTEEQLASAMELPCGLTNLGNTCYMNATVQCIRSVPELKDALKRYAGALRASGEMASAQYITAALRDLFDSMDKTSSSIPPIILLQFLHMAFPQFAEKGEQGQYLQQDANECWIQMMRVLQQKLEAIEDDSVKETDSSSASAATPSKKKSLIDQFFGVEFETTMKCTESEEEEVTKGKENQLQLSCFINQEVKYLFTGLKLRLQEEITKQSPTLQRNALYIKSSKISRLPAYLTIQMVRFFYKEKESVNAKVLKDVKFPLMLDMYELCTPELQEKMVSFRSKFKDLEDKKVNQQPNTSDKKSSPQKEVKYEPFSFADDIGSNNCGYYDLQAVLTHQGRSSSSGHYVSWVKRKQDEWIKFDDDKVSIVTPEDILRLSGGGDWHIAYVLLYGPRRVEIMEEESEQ
- test protocol: log2 ratio of Biotin-Ahx-Ub-VS probe labelling (fragment/DMSO); higher = less target engagement (more negative = stronger competition), active = hit call of the paper (q ≤ 0.05, log2 ratio ≤ -1)
- condition details: compound concentration: 200 uM; treatment time: 3 h

Recall the recorded log2 ratio of Biotin-Ahx-Ub-VS probe labelling for O=C(CCl)NCc1cccc(F)c1 with USP14 (UniProt P54578) and state it. -0.167 (inactive)

Recall the recorded log2 ratio of Biotin-Ahx-Ub-VS probe labelling for CC(O)CC1CCN(C(=O)CCl)CC1 (stereo unspecified) with USP14 (UniProt P54578) and state it. -0.442 (inactive)

Recall the recorded log2 ratio of Biotin-Ahx-Ub-VS probe labelling for Cc1c(C#N)c(NC(=O)CCl)n(Cc2ccco2)c1C with USP14 (UniProt P54578) and state it. -0.314 (inactive)

Recall the recorded log2 ratio of Biotin-Ahx-Ub-VS probe labelling for CNC(=O)C1CCN(C(=O)CCl)CC1 with USP14 (UniProt P54578) and state it. -0.146 (inactive)

Recall the recorded log2 ratio of Biotin-Ahx-Ub-VS probe labelling for O=C(CCl)N1CCc2[nH]c3ccccc3c2C1 with USP14 (UniProt P54578) and state it. -1.05 (active)

Recall the recorded log2 ratio of Biotin-Ahx-Ub-VS probe labelling for Cc1nc(CN2CCN(C(=O)CCl)CC2)cs1 with USP14 (UniProt P54578) and state it. -0.431 (inactive)

Recall the recorded log2 ratio of Biotin-Ahx-Ub-VS probe labelling for Cl.O=C(CCl)N1CCn2cncc2C1 with USP14 (UniProt P54578) and state it. -0.259 (inactive)

Recall the recorded log2 ratio of Biotin-Ahx-Ub-VS probe labelling for Cc1conc1C1CN(C(=O)CCl)C1 with USP14 (UniProt P54578) and state it. -1.12 (active)

Recall the recorded log2 ratio of Biotin-Ahx-Ub-VS probe labelling for Cc1nc(CC2CCN(C(=O)CCl)CC2)no1 with USP14 (UniProt P54578) and state it. -0.561 (inactive)

Recall the recorded log2 ratio of Biotin-Ahx-Ub-VS probe labelling for CC(=O)C1CCCCN1C(=O)CCl (stereo unspecified) with USP14 (UniProt P54578) and state it. -0.101 (inactive)

Recall the recorded log2 ratio of Biotin-Ahx-Ub-VS probe labelling for N#Cc1ccccc1N1CCN(C(=O)CCl)CC1 with USP14 (UniProt P54578) and state it. -0.673 (inactive)

Recall the recorded log2 ratio of Biotin-Ahx-Ub-VS probe labelling for Cc1cccn2cc(CCNC(=O)CCl)nc12.Cl with USP14 (UniProt P54578) and state it. -0.461 (inactive)

Recall the recorded log2 ratio of Biotin-Ahx-Ub-VS probe labelling for O=C(CCl)Nc1nc(-c2cccs2)cs1 with USP14 (UniProt P54578) and state it. 0.15 (inactive)

Recall the recorded log2 ratio of Biotin-Ahx-Ub-VS probe labelling for Cc1ccc(CC(NC(=O)CCl)c2ccccn2)cc1.Cl (stereo unspecified) with USP14 (UniProt P54578) and state it. -0.0182 (inactive)

Recall the recorded log2 ratio of Biotin-Ahx-Ub-VS probe labelling for O=C(CCl)N1CCC(OCc2ccccc2F)CC1 with USP14 (UniProt P54578) and state it. 0.0975 (inactive)

Recall the recorded log2 ratio of Biotin-Ahx-Ub-VS probe labelling for Cc1cccc(NC(=O)CCl)c1C with USP14 (UniProt P54578) and state it. -0.488 (inactive)

Recall the recorded log2 ratio of Biotin-Ahx-Ub-VS probe labelling for COc1cccc(CN(C)C(=O)CCl)c1 with USP14 (UniProt P54578) and state it. -0.252 (inactive)

Recall the recorded log2 ratio of Biotin-Ahx-Ub-VS probe labelling for O=C(CCl)Nc1cc2c(cc1Cl)OCCO2 with USP14 (UniProt P54578) and state it. 0.233 (inactive)

Recall the recorded log2 ratio of Biotin-Ahx-Ub-VS probe labelling for O=C(CCl)Nc1ccc2c(c1)OC(F)(F)O2 with USP14 (UniProt P54578) and state it. -0.0555 (inactive)

Recall the recorded log2 ratio of Biotin-Ahx-Ub-VS probe labelling for Cc1cccc(N(CCC#N)C(=O)CCl)c1C with USP14 (UniProt P54578) and state it. 0.0267 (inactive)

Recall the recorded log2 ratio of Biotin-Ahx-Ub-VS probe labelling for Cc1n[nH]c2c1CN(C(=O)CCl)CC2 with USP14 (UniProt P54578) and state it. -0.903 (inactive)

Recall the recorded log2 ratio of Biotin-Ahx-Ub-VS probe labelling for CC1Cc2ccccc2N1C(=O)CCl (stereo unspecified) with USP14 (UniProt P54578) and state it. -0.771 (inactive)

Recall the recorded log2 ratio of Biotin-Ahx-Ub-VS probe labelling for O=C(CCl)N1CCC(C(O)c2ccc(F)cc2)CC1 (stereo unspecified) with USP14 (UniProt P54578) and state it. -0.0836 (inactive)

Recall the recorded log2 ratio of Biotin-Ahx-Ub-VS probe labelling for C[C@H]1CN(C(=O)CCl)CCN1C(=O)c1cnn(C)c1.Cl with USP14 (UniProt P54578) and state it. -0.0358 (inactive)

Recall the recorded log2 ratio of Biotin-Ahx-Ub-VS probe labelling for Cc1cccc2nc(CCNC(=O)CCl)cn12.Cl with USP14 (UniProt P54578) and state it. -0.259 (inactive)

Recall the recorded log2 ratio of Biotin-Ahx-Ub-VS probe labelling for CC(NC(=O)CCl)c1cc2n(n1)CCCC2.Cl (stereo unspecified) with USP14 (UniProt P54578) and state it. -0.363 (inactive)

Recall the recorded log2 ratio of Biotin-Ahx-Ub-VS probe labelling for Cc1c(NC(=O)CCl)c(=O)n(-c2ccccc2)n1C with USP14 (UniProt P54578) and state it. -0.215 (inactive)

Recall the recorded log2 ratio of Biotin-Ahx-Ub-VS probe labelling for O=C(CCl)Nc1nnc(CC(F)(F)F)o1 with USP14 (UniProt P54578) and state it. -0.206 (inactive)

Recall the recorded log2 ratio of Biotin-Ahx-Ub-VS probe labelling for CC(NC(=O)CCl)c1csc(-c2ccccc2)n1.Cl (stereo unspecified) with USP14 (UniProt P54578) and state it. -0.367 (inactive)

Recall the recorded log2 ratio of Biotin-Ahx-Ub-VS probe labelling for CCC1c2ccsc2CCN1C(=O)CCl (stereo unspecified) with USP14 (UniProt P54578) and state it. -0.479 (inactive)

Recall the recorded log2 ratio of Biotin-Ahx-Ub-VS probe labelling for O=C(CCl)NCc1ccc(N2CCOCC2)c(F)c1 with USP14 (UniProt P54578) and state it. 0.1 (inactive)

Recall the recorded log2 ratio of Biotin-Ahx-Ub-VS probe labelling for Cl.Cn1ncc2c1CCCC2NC(=O)CCl (stereo unspecified) with USP14 (UniProt P54578) and state it. -0.227 (inactive)

Recall the recorded log2 ratio of Biotin-Ahx-Ub-VS probe labelling for NS(=O)(=O)c1ccc(Cl)c(NC(=O)CCl)c1 with USP14 (UniProt P54578) and state it. -0.356 (inactive)

Recall the recorded log2 ratio of Biotin-Ahx-Ub-VS probe labelling for Cc1n[nH]c(=O)c2c(NC(=O)CCl)oc(C)c12 with USP14 (UniProt P54578) and state it. 0.0281 (inactive)

Recall the recorded log2 ratio of Biotin-Ahx-Ub-VS probe labelling for Cc1ccc(N(C(=O)CCl)C2C=CS(=O)(=O)C2)cc1 (stereo unspecified) with USP14 (UniProt P54578) and state it. -0.0859 (inactive)

Recall the recorded log2 ratio of Biotin-Ahx-Ub-VS probe labelling for NC(=O)C1CCCCN1C(=O)CCl (stereo unspecified) with USP14 (UniProt P54578) and state it. -0.15 (inactive)

Recall the recorded log2 ratio of Biotin-Ahx-Ub-VS probe labelling for Cc1noc(C)c1CNC(=O)CCl with USP14 (UniProt P54578) and state it. -0.561 (inactive)

Recall the recorded log2 ratio of Biotin-Ahx-Ub-VS probe labelling for Cl.Cn1c(CNC(=O)CCl)nc2cccnc21 with USP14 (UniProt P54578) and state it. -0.0826 (inactive)

Recall the recorded log2 ratio of Biotin-Ahx-Ub-VS probe labelling for Cc1ccc(-c2nnc(C)[nH]2)c(NC(=O)CCl)c1 with USP14 (UniProt P54578) and state it. -0.203 (inactive)

Recall the recorded log2 ratio of Biotin-Ahx-Ub-VS probe labelling for Cn1cc(CN(Cc2ccc(Cl)cc2)C(=O)CCl)cn1 with USP14 (UniProt P54578) and state it. -1.03 (active)

Recall the recorded log2 ratio of Biotin-Ahx-Ub-VS probe labelling for CCCn1nccc1NC(=O)CCl with USP14 (UniProt P54578) and state it. -0.663 (inactive)

Recall the recorded log2 ratio of Biotin-Ahx-Ub-VS probe labelling for O=C(CCl)N1CCCC1c1ccsc1 (stereo unspecified) with USP14 (UniProt P54578) and state it. -0.248 (inactive)

Recall the recorded log2 ratio of Biotin-Ahx-Ub-VS probe labelling for O=C(CCl)N1CCC(=C(F)CO)C1 with USP14 (UniProt P54578) and state it. 0.054 (inactive)

Recall the recorded log2 ratio of Biotin-Ahx-Ub-VS probe labelling for O=C(CCl)N1CC2(CCOCC2)C1 with USP14 (UniProt P54578) and state it. -0.191 (inactive)

Recall the recorded log2 ratio of Biotin-Ahx-Ub-VS probe labelling for O=C(CCl)N1CCOCCC1c1ccccc1 (stereo unspecified) with USP14 (UniProt P54578) and state it. -0.111 (inactive)

Recall the recorded log2 ratio of Biotin-Ahx-Ub-VS probe labelling for Cc1cc(C2CCCN2C(=O)CCl)nn1C.Cl (stereo unspecified) with USP14 (UniProt P54578) and state it. -0.361 (inactive)

Recall the recorded log2 ratio of Biotin-Ahx-Ub-VS probe labelling for O=C(CCl)NC1CCOc2ccccc21 (stereo unspecified) with USP14 (UniProt P54578) and state it. -0.937 (inactive)

Recall the recorded log2 ratio of Biotin-Ahx-Ub-VS probe labelling for O=C(CCl)N1CCC[C@@H]1c1ccon1 with USP14 (UniProt P54578) and state it. -0.652 (inactive)

Recall the recorded log2 ratio of Biotin-Ahx-Ub-VS probe labelling for O=C(CCl)N1CC=C(c2c[nH]c3ccccc23)CC1 with USP14 (UniProt P54578) and state it. -0.573 (inactive)

Recall the recorded log2 ratio of Biotin-Ahx-Ub-VS probe labelling for Cl.O=C(CN1CCN(C(=O)CCl)CC1)Nc1ccc(F)cc1 with USP14 (UniProt P54578) and state it. -0.0648 (inactive)

Recall the recorded log2 ratio of Biotin-Ahx-Ub-VS probe labelling for Cc1ccccc1CN(C)C(=O)CCl with USP14 (UniProt P54578) and state it. -0.81 (inactive)

Recall the recorded log2 ratio of Biotin-Ahx-Ub-VS probe labelling for Cc1ccccc1OCC(=O)N1CCN(C(=O)CCl)CC1 with USP14 (UniProt P54578) and state it. -0.131 (inactive)

Recall the recorded log2 ratio of Biotin-Ahx-Ub-VS probe labelling for Cc1cccc(C)c1NC(=O)CCl with USP14 (UniProt P54578) and state it. -0.289 (inactive)

Recall the recorded log2 ratio of Biotin-Ahx-Ub-VS probe labelling for CC(NC(=O)CCl)c1cccc(Cl)c1 (stereo unspecified) with USP14 (UniProt P54578) and state it. -0.42 (inactive)

Recall the recorded log2 ratio of Biotin-Ahx-Ub-VS probe labelling for Cc1ccc2nnc(CNC(=O)CCl)n2c1 with USP14 (UniProt P54578) and state it. 0.17 (inactive)

Recall the recorded log2 ratio of Biotin-Ahx-Ub-VS probe labelling for Cc1ccccc1C1(CNC(=O)CCl)CCOCC1 with USP14 (UniProt P54578) and state it. -0.0489 (inactive)
